Answer each item with its documented IC50.
Biological target: Genome polyprotein (dengue virus type 2, UniProt P29990)
Sequence (P29990 2492-3391 limits assumed): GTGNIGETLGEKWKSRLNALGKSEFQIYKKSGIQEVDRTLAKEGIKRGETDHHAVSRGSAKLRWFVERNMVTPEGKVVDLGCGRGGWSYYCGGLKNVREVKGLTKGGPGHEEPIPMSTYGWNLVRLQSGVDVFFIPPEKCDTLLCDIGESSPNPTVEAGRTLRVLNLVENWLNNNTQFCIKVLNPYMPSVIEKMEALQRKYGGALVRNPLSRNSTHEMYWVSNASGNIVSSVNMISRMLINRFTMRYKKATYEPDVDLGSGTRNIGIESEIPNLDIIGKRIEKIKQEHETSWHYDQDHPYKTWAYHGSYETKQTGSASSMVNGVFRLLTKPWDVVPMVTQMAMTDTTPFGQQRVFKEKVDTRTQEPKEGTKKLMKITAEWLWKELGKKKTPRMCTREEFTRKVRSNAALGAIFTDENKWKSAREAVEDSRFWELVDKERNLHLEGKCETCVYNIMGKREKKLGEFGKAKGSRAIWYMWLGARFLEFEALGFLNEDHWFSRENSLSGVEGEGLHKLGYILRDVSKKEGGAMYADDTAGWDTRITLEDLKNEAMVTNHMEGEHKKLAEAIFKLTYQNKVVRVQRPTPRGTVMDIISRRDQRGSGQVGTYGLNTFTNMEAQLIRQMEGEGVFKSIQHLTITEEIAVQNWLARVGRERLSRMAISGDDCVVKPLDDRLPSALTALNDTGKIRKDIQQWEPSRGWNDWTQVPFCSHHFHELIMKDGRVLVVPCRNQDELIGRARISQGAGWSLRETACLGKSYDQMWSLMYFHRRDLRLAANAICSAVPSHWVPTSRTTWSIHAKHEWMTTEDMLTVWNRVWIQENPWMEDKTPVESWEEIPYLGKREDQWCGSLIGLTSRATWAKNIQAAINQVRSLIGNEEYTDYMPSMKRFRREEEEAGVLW
Assay: flavivirus cap methylation enzyme inhibition – biochemical, confirmation dose response, primary screen (AID 588689)
Type: functional
Active and inactive are the calls of the source.

Illustrative cases are given below, each with its answer.
>>> print(df.to_string())
                           substance_smiles  reported_endpoint             result
0        CCCC(=O)NC1=C(Cl)C(=O)c2ccccc2C1=O               IC50   14.5 µM (active)
1  Cc1ccc(C)c(S(=O)(=O)Nc2ccccc2C(=O)Nc2ccc(S(=O)(=O)Nc3ncccn3)cc2)c1               IC50  > 100 µM (active)
2  O=C1NN(c2ccccc2)C(=O)/C1=C/c1ccc(-c2ccc(Cl)c(C(=O)O)c2)o1               IC50   32.2 µM (active)

IC50 in this record for O=C(O)c1ccccc1-c1ccc(C=C2C(=O)N(c3ccccc3)C(=S)N(c3ccccc3)C2=O)o1 : 12.3 µM (active)

---

Target: DNA dC->dU-editing enzyme APOBEC-3A (Homo sapiens)
Sequence (P31941 whole entry): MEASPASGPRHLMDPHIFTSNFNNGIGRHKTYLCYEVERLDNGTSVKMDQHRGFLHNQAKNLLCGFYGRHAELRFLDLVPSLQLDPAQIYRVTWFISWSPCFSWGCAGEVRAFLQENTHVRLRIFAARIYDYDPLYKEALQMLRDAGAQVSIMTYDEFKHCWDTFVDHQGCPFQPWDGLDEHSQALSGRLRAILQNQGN
Test: Dose Response confirmation of small molecule APOBEC3A DNA Deaminase Inhibitors via a fluorescence-based single-stranded DNA deaminase assay. [Related pubchem assays (depositor defined):AID493011, AID493024]
Assay type: functional
The source made the active and inactive calls.
Reported endpoint: IC50

Illustrative cases are given below, each with its answer.
>>> print(df.to_string())
                           substance_smiles  reported_endpoint            result
0  COc1cccc(CNC(=O)c2cccc(S(=O)(=O)N3CCN(C)CC3)c2)c1               IC50  5.44 µM (active)
1  COc1ccc(NC(=O)c2cc(-c3ccco3)nc3ccccc23)cn1               IC50  16.9 µM (active)
2  CCN1C(NCCOC)=N[C@@H](c2cccc(F)c2)C(C(=O)OC)=C1C               IC50  3.86 µM (active)

Let us move to another entry and its IC50.
IC50 in this record for CN(Cc1ccc(Cl)c(Cl)c1)C(=O)C1=CC=CN2CCS(=O)(=O)N=C12 : 8.45 µM (active)

---

Molecular target: Heat shock factor protein 1 (Mus musculus, UniProt P38532)
Sequence (P38532 whole entry): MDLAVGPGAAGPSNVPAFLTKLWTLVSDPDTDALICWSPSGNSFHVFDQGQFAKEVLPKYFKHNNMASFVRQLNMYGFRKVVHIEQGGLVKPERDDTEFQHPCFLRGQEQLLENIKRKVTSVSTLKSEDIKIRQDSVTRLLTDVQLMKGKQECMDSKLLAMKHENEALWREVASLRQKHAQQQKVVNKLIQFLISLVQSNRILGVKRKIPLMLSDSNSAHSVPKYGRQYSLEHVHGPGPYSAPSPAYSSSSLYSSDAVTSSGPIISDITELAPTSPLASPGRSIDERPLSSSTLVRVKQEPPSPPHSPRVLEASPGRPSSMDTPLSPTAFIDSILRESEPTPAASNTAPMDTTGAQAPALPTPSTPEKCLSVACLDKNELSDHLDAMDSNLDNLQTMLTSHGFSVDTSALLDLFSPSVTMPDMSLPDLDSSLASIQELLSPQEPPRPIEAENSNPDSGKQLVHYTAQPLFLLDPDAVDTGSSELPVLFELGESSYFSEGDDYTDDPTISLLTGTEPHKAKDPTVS
Assay: decrease of HSF1-responsive luciferase luminescence – cell-based, NIH3T3, dose retest, confirmation (AID 2382);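 also: NIH3T3 fibroblasts with HSF1-driven luciferase reporter stressed by proteasome inhibitor MG132; luminescence from HSF1-driven luciferase expression after 8 hours of MG132 stress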
Assay type: functional
Active and inactive are the calls of the source.
Reported endpoint: EC50

In [3]: df
Out[3]:
                                   compound  reported_endpoint                 result
0  O=C(CCl)N(C/C=C/c1ccccc1)c1ccc2c(c1)OCCO2               EC50       1.67 µM (active)
1  COc1ccccc1NC(=O)Cn1c(=O)c(N(C)C)c(N)n(C)c1=O               EC50  > 195 µM (not active)
2  COc1ccccc1Oc1ccc2c(c1)C(=O)N(c1ccc(Br)c3cccnc13)C2=O               EC50  > 195 µM (not active)
3  O=C(COC(=O)C1C2CC3OC(=O)C1C3C2)Nc1cccc(Cl)c1 (stereo unspecified)               EC50  > 195 µM (not active)
4  CC(C)CN=C(NS(=O)(=O)c1ccccc1)C(Cl)(Cl)Cl               EC50       7.41 µM (active)

Let us move to another entry and its EC50.
EC50 in this record for CCS(=O)(=O)Nc1ccc(-c2nc3cccnc3s2)cc1 : 92.9 µM (active)
